The values you see were collected from patent US8895695B2.

Test system: human red blood cells (hRBC)
Assay: Hemolysis
Assay type: cell-based
Protocol: The peptides were tested for their hemolytic activity against human red blood cells (hRBC). Fresh hRBC were washed three times with phosphate buffered saline (PBS) by centrifugation for 10 min at 2000×g. […] 100% cell lysis was determined by incubation of the hRBC in the presence of PBS alone and respectively 0.1% Triton X-100 in H2O. The samples were centrifuged and the supernatant was 20-fold diluted in PBS buffer and the optical density (OD) of the sample at 540 nM was measured. […]
Bridge positions count the residues as written; N and C are the ends. Square brackets hold non-standard residues; d marks the D form. Peptide text beside a SMILES is read from it. 4Pal = N[C@@H](Cc1ccncc1)C(=O)O; Cit = NC(=O)NCCC[C@H](N)C(=O)O
measurement-label: Hemolysis at 100 μM (%)
Just the number please, in %, no unit attached.

compound	unit-name	Hemolysis at 100 μM
N=C(N)NCCC[C@@H]1NC(=O)[C@@H]2CSSC[C@H](NC(=O)[C@H](Cc3c[nH]c4ccccc34)NC(=O)[C@H](CCCNC(=N)N)NC(=O)[C@H](CCCNC(=N)N)NC(=O)[C@H]3CCCN3C(=O)CNC1=O)C(=O)N[C@@H](Cc1ccc(O)cc1)C(=O)N[C@@H](CCCNC(N)=O)C(=O)N[C@@H](CCCCN)C(=O)N1CCC[C@@H]1C(=O)N1CCC[C@H]1C(=O)N[C@@H](Cc1ccc(O)cc1)C(=O)N[C@@H](CCCCN)C(=O)N[C@@H](CCCNC(N)=O)C(=O)N2 [Ex. 106] (cyclo(YK[Cit]CRG[dP]RRWCY[Cit]K[dP]P); disulfide 4-11)	%	0

Log: human red blood cells (hRBC), compound C[C@@H](O)[C@@H]1NC(=O)[C@H](Cc2ccncc2)NC(=O)[C@H](Cc2ccc(O)cc2)NC(=O)[C@@H]2CCCN2C(=O)[C@H]2CCCN2C(=O)[C@H](CCCCN)NC(=O)[C@H](CCC(N)=O)NC(=O)[C@H](Cc2ccc(O)cc2)NC(=O)[C@@H]2CSSC[C@H](NC1=O)C(=O)N[C@@H](CCCNC(=N)N)C(=O)NCC(=O)N1CCC[C@@H]1C(=O)N[C@@H](CCCNC(=N)N)C(=O)N[C@@H](CCCNC(=N)N)C(=O)N[C@@H](Cc1c[nH]c3ccccc13)C(=O)N2 [Ex. 119] (cyclo(Y[4Pal]TCRG[dP]RRWCYQK[dP]P); disulfide 4-11) , Hemolysis at 100 μM = 0

----------
Test: in vitro
Settings: human, HELA cells (Acc57)
Square brackets hold non-standard residues; d marks the D form. Peptide text beside a SMILES is read from it. 2Nal = N[C@@H](Cc1ccc2ccccc2c1)C(=O)O; Cit = NC(=O)NCCC[C@H](N)C(=O)O
measurement-label: CC50 at 48 h (µM)
Just the number please, in µM, no unit attached.

Noted for CC(C)[C@@H]1NC(=O)[C@H](CCCNC(N)=O)NC(=O)[C@H](CCCNC(=N)N)NC(=O)[C@H](Cc2ccc(O)cc2)NC(=O)[C@@H]2CCCN2C(=O)[C@H]2CCCN2C(=O)[C@H](CCCCN)NC(=O)[C@H](CCCNC(N)=O)NC(=O)[C@H](Cc2ccc(O)cc2)NC(=O)[C@H](Cc2ccccc2)NC(=O)[C@H](Cc2ccc3ccccc3c2)NC(=O)[C@H](CCCNC(=N)N)NC(=O)[C@@H](CCCNC(=N)N)NC(=O)[C@H](CCCNC(=N)N)NC1=O [Ex. 1] (cyclo(YR[Cit]VR[dR]R[2Nal]FY[Cit]K[dP]P)) : its CC50 at 48 h reads 82

----------
Target: CXCR4 (Homo sapiens, UniProt P61073)
Sequence (P61073 whole entry): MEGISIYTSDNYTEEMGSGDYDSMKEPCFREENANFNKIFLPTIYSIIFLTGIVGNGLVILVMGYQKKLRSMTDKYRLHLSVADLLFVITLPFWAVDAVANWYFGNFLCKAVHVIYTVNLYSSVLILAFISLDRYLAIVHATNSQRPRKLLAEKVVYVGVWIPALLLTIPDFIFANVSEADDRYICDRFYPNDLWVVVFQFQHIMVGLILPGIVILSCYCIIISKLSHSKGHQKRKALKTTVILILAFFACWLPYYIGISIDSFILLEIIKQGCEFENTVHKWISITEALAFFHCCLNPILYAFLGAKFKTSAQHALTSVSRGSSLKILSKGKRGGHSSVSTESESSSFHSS
Assay: Ca2+-assay method 2 (Flexstation, SDF-1 induced calcium mobilization)
Format: cell-based
Design: expressed in transfected cells; host or cells: mouse pre-B cell line 300-19
Details: method 2 (Ex. 54-160), mouse pre-B cell line 300-19 with human CXCR4, 10 nM SDF-1; read-out: IC50 (nM) Ca^2+ assay
Bridge positions count the residues as written; N and C are the ends. Square brackets hold non-standard residues; d marks the D form. Peptide text beside a SMILES is read from it. 2Nal = N[C@@H](Cc1ccc2ccccc2c1)C(=O)O; Cit = NC(=O)NCCC[C@H](N)C(=O)O
measurement-label: IC50 (nM)
Just the number please, in nM, no unit attached.

molecule	IC50 / nM
N=C(N)NCCC[C@@H]1NC(=O)[C@@H]2CSSC[C@H](NC(=O)[C@H](Cc3ccc4ccccc4c3)NC(=O)[C@H](CCCNC(=N)N)NC(=O)[C@H](CCCNC(=N)N)NC(=O)[C@H]3CCCN3C(=O)CNC1=O)C(=O)N[C@@H](Cc1ccc(O)cc1)C(=O)N[C@@H](CCC(N)=O)C(=O)N[C@@H](CCCCN)C(=O)N1CCC[C@@H]1C(=O)N1CCC[C@H]1C(=O)N[C@@H](Cc1ccc(O)cc1)C(=O)N[C@@H](CCCNC(=N)N)C(=O)N[C@@H](CCCNC(=N)N)C(=O)N2 [Ex. 69] (cyclo(YRRCRG[dP]RR[2Nal]CYQK[dP]P); disulfide 4-11)	1.8

For the next question, use this molecule.
Log: CXCR4 (Homo sapiens, UniProt P61073), molecule N=C(N)NCCC[C@@H]1NC(=O)[C@@H]2CSSC[C@H](NC(=O)[C@H](Cc3c[nH]c4ccccc34)NC(=O)[C@H](CCCNC(=N)N)NC(=O)[C@H](CCCNC(N)=O)NC(=O)[C@H]3CCCN3C(=O)CNC1=O)C(=O)N[C@@H](Cc1ccc(O)cc1)C(=O)N[C@@H](CCCNC(N)=O)C(=O)N[C@@H](CCCCN)C(=O)N1CCC[C@@H]1C(=O)N1CCC[C@H]1C(=O)N[C@@H](Cc1ccc(O)cc1)C(=O)N[C@@H](CCCNC(=N)N)C(=O)N[C@@H](CCCNC(N)=O)C(=O)N2 [Ex. 136] (cyclo(YR[Cit]CRG[dP][Cit]RWCY[Cit]K[dP]P); disulfide 4-11) , IC50 = 4.1

----------
Assay: in vitro
Assay type: in vitro ADME
Settings: human, plasma
Bridge positions count the residues as written; N and C are the ends. Square brackets hold non-standard residues; d marks the D form. Peptide text beside a SMILES is read from it. 2Nal = N[C@@H](Cc1ccc2ccccc2c1)C(=O)O; Cit = NC(=O)NCCC[C@H](N)C(=O)O
measurement-label: half-life at 10 μM (h)
Just the number please, in h, no unit attached.

Noted for N=C(N)NCCC[C@@H]1NC(=O)[C@@H]2CSSC[C@H](NC(=O)[C@H](Cc3ccc4ccccc4c3)NC(=O)[C@H](CCCNC(=N)N)NC(=O)[C@H](CCCNC(=N)N)NC(=O)[C@H]3CCCN3C(=O)CNC1=O)C(=O)N[C@@H](Cc1ccc(O)cc1)C(=O)N[C@@H](CCC(N)=O)C(=O)N[C@@H](CCC(=O)O)C(=O)N1CCC[C@@H]1C(=O)N1CCC[C@H]1C(=O)N[C@@H](Cc1ccc(O)cc1)C(=O)N[C@@H](CCCNC(=N)N)C(=O)N[C@@H](CCCNC(N)=O)C(=O)N2 [Ex. 61] (cyclo(YR[Cit]CRG[dP]RR[2Nal]CYQE[dP]P); disulfide 4-11) : its half-life at 10 μM reads 4.55

----------
Overview of recorded IC50 for various compounds
Biological target: CXCR4 (Homo sapiens, UniProt P61073)
Test: Ca2+-assay method 2 (Flexstation, SDF-1 induced calcium mobilization)
Assay type: cell-based
Set-up: expressed in transfected cells; host or cells: mouse pre-B cell line 300-19
Settings: method 2 (Ex. 54-160), mouse pre-B cell line 300-19 with human CXCR4, 10 nM SDF-1; read-out: IC50 (nM) Ca^2+ assay
Bridge positions count the residues as written; N and C are the ends. Square brackets hold non-standard residues; d marks the D form. Peptide text beside a SMILES is read from it. 2Nal = N[C@@H](Cc1ccc2ccccc2c1)C(=O)O; Cit = NC(=O)NCCC[C@H](N)C(=O)O; Dab = NCC[C@H](N)C(=O)O
Param answer (str): number followed by unit.

compound	IC50
N=C(N)NCCC[C@@H]1NC(=O)[C@@H]2CSSC[C@H](NC(=O)[C@H](Cc3ccc4ccccc4c3)NC(=O)[C@H](CCCNC(=N)N)NC(=O)[C@H](CCCNC(=N)N)NC(=O)[C@H]3CCCN3C(=O)CNC1=O)C(=O)N[C@@H](Cc1ccc(O)cc1)C(=O)N[C@@H](CCC(N)=O)C(=O)N[C@@H](CCCCN)C(=O)N1CCC[C@@H]1C(=O)N1CCC[C@H]1C(=O)N[C@@H](Cc1ccc(O)cc1)C(=O)N[C@@H](CCCNC(=N)N)C(=O)N[C@@H](CCCNC(N)=O)C(=O)N2 [Ex. 115] (cyclo(RR[2Nal]CYQK[dP]PYR[Cit]CRG[dP]); disulfide 4-13)	2.7 nM

For the next question, use this compound.
Noted for N=C(N)NCCC[C@@H]1NC(=O)[C@@H]2CSSC[C@H](NC(=O)[C@H](Cc3ccc4ccccc4c3)NC(=O)[C@H](CCCNC(=N)N)NC(=O)[C@H](CCN)NC(=O)[C@H]3CCCN3C(=O)CNC1=O)C(=O)N[C@@H](Cc1ccc(O)cc1)C(=O)N[C@@H](CCCNC(N)=O)C(=O)N[C@@H](CCCCN)C(=O)N1CCC[C@@H]1C(=O)N1CCC[C@H]1C(=O)N[C@@H](Cc1ccc(O)cc1)C(=O)N[C@@H](CCCNC(=N)N)C(=O)N[C@@H](CCCNC(N)=O)C(=O)N2 [Ex. 134] (cyclo(YR[Cit]CRG[dP][Dab]R[2Nal]CY[Cit]K[dP]P); disulfide 4-11) : its IC50 reads 1.7 nM
